- experimental system: tyrosinase
- protocol notes: Effect on tyrosinase activity (L-DOPA to dopachrome, absorbance at 475 nm)
- experimental context: L-DOPA substrate, 25° C., 10 minutes, pH 6.8; read-out: half-inhibitory concentration (IC50) in inhibiting tyrosinase
endpoint name: IC50 (µM)
A number alone suffices; assume µM.

// query State the recorded IC50 for this entry: O=c1c(-c2ccc(O)c(O)c2)coc2cc(O)cc(O)c12 [3′-hydroxygenistein]
// result 15.9
